Item-by-item account of IC50
Molecular target: NUAK1 (Homo sapiens, UniProt O60285)
Sequence (O60285 1-661): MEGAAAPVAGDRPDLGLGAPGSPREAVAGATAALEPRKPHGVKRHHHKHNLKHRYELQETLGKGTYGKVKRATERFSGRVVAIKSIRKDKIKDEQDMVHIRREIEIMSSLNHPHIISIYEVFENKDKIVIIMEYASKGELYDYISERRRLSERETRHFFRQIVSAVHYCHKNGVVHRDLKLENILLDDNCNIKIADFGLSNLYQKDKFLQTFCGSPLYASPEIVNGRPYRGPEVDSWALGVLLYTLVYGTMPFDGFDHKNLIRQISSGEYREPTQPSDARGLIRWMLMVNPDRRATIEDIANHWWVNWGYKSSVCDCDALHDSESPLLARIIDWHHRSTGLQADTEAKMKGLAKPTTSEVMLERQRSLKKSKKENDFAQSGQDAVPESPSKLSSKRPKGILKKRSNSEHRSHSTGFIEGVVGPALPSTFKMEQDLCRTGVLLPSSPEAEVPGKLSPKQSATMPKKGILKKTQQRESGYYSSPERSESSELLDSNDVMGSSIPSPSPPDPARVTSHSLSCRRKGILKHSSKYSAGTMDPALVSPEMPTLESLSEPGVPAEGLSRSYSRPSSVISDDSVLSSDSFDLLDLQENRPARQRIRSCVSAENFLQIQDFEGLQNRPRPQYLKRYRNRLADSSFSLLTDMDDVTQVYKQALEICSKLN
Assay: Kinase activity inhibition assay, P81 filter paper binding hot-spot technique (33P-ATP, CHKtide substrate)
Assay type: biochemical
Conditions: final concentration of NUAK1 10 nM; 20 µM CHKtide substrate; incubated 2 hours at room temperature; read-out: IC50 (nM) of Test Compounds of the Present Application against NUAK1
Measured attribute: IC50 (nM)

1. O=C(Nc1cccc(Oc2nc(Nc3cnn(C4CCNCC4)c3)ncc2Cl)c1)C1CC1(F)F (centres unmarked)	161
2. COc1cc(N2CCN(C)CC2)ccc1Nc1ncc(Cl)c(Oc2ccccc2NC(=O)C2CC2)n1	24
3. CN1CCN(c2ccc(Nc3ncc(Cl)c(Oc4cccc(NC(=O)C5CC5(F)F)c4)n3)cc2)CC1 (centres unmarked)	21
4. CN1CCN(c2ccc(Nc3ncc(Cl)c(N(C)c4cccc(NC(=O)[C@@H]5CC5(F)F)c4)n3)cc2)CC1	81
5. COc1cc(N2CCN(C)CC2)ccc1Nc1ncc(Cl)c(Oc2ccccc2NC(=O)[C@@H]2CC2(F)F)n1	4
